Hey, just so you know, these numbers are from the supplement of paper PMC8728848.

TEST_SYSTEM: Gal(b1-4)GlcNAc(b1-2)Man(a1-3)[Gal(b1-4)GlcNAc(b1-2)Man(a1-6)][GlcNAc(b1-4)]Man(b1-4)GlcNAc(b1-4)[Fuc(a1-6)]GlcNAc
ASSAY_PROCEDURE: glycan array binding signal (z-score within array); higher = stronger binding
MEASUREMENT_CONDITIONS: glycan notation: IUPAC condensed, linker removed
About 410 targets per protein were measured; listed, in parts, are those with the strongest signals and a random draw of the rest.
PROPERTY: glycan array binding signal (z-score)

Prompt: Quick one: give measured glycan array binding signal (z-score) for MPA (Maclura pomifera), P18674 (protein) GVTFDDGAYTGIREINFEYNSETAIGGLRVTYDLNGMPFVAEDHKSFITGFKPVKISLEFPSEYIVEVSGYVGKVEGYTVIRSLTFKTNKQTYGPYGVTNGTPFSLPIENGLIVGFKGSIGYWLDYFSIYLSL
Response: -0.26
